assay: modulators of HCV replicon luciferase signal, primary screen, HCV replication inhibitor project, Huh7 cells, luciferase reporter (AID 1109); settings: 48 h, higher = more signal;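 also: huh7 hepatoma cells harbouring a luciferase neomycin HCV replicon reporter; luciferase luminescence as measure of HCV replicon replication; test concentration not given here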
Use z-score to assign classes; range list: b0 (below -0.5), b1 (-0.5 to below 0.03), b2 (0.03 or more)

Here's what some known entries look like.
[[record]]
compound = "O=C1[C@H]2[C@H]3[C@H](O)[C@H](O)CC(=NOC[C@@H](O)COCc4ccco4)[C@@H]3CC[C@H]2C(=O)N1Cc1ccccc1"
label = "b1"

[[record]]
compound = "COc1ccc(O[C@H]2C=C[C@@H](c3ccccc3)O[C@@H]2COC(=O)CCC(C)=NOC[C@@H](O)COCc2ccco2)cc1"
label = "b0"


Moving on to another compound below.
query: Exam item: assign CC=CC1=C(CO)[C@H](O)[C@H]2O[C@H]2[C@@H]1O to the correct category.
result: b2
